test: in vitro; conditions: SD, HW or BN, rat, plasma
Would you mind telling me the reported fraction unbound at 5 h of each entry?
Note: the reply should be a number with no unit written.

Data request: Let me know recorded fraction unbound at 5 h for CC(=O)N1CCN(c2nc(NCc3ccc(OC(F)(F)F)cc3)c3c(n2)C(=O)N(C(C)C)C3)CC1 , thanks.
Data returned: 0.151

Data request: Let me know recorded fraction unbound at 5 h for O=C(CCCN1CC[Si](O)(c2ccc(Cl)cc2)CC1)c1ccc(F)cc1 , thanks.
Data returned: 0.0544

Data request: Let me know recorded fraction unbound at 5 h for CN(Cc1ccc(-c2ccccc2S(N)(=O)=O)cc1)C(=O)[C@@H]1CCC[C@H]1C(=O)NCc1ccc(OC(F)(F)F)cc1 , thanks.
Data returned: 0.003

Data request: Let me know recorded fraction unbound at 5 h for C[C@H]1CN(Cc2cc(Cl)ccc2OCC(=O)O)CCN1C(=O)Cc1ccc(F)cc1 , thanks.
Data returned: 0.0928

Data request: Let me know recorded fraction unbound at 5 h for CN(C)C(C)(C(=O)OC1CC[N+](C)(C)CC1)c1ccccc1 (stereo not given) , thanks.
Data returned: 0.454

Data request: Let me know recorded fraction unbound at 5 h for COc1ncc(-c2c(C)ccc(F)c2CCNC(=O)c2ccc(OCC(F)(F)F)nc2)cn1 , thanks.
Data returned: 0.0437

Data request: Let me know recorded fraction unbound at 5 h for C[C@H](CO)n1ccc2c(NC(=O)Cc3ccc(Cl)c(C(F)(F)F)c3)cccc2c1=O , thanks.
Data returned: 0.0391

Data request: Let me know recorded fraction unbound at 5 h for NC(=O)c1cnc(N[C@H]2CCCNC2)c2cc(-c3ccccc3)sc12 , thanks.
Data returned: 0.224

Data request: Let me know recorded fraction unbound at 5 h for O=c1[nH]c2c(O)ccc([C@@H](O)CN[C@H]3CCC[C@@H]3OCc3ccccc3)c2s1 , thanks.
Data returned: 0.179

Data request: Let me know recorded fraction unbound at 5 h for Cc1cc(Nc2nc(N[C@@H](C)c3ccc(F)cn3)c(C#N)nc2C)n[nH]1 , thanks.
Data returned: 0.19

Data request: Let me know recorded fraction unbound at 5 h for CC(C)(N)C(=O)N[C@H](COCc1ccccc1)C(=O)N1CCC2(CC1)CN(S(C)(=O)=O)c1ccccc12 [IBUTAMOREN] , thanks.
Data returned: 0.253

Data request: Let me know recorded fraction unbound at 5 h for O=C(NCc1ccc(F)c(OC(F)(F)F)c1)C1c2ccccc2C(=O)N1CCc1ncc(F)cn1 (stereo not given) , thanks.
Data returned: 0.0988

Data request: Let me know recorded fraction unbound at 5 h for CC(C)Oc1cc(Nc2nc(N[C@@H](C)c3ccc(F)cc3)nc(NC(CO)CO)c2Cl)n[nH]1 , thanks.
Data returned: 0.0428

Data request: Let me know recorded fraction unbound at 5 h for O=C(O)c1cccnc1 [NIACIN] , thanks.
Data returned: 0.546

Data request: Let me know recorded fraction unbound at 5 h for CC(C(=O)O)c1cccc(Oc2ccccc2)c1 (stereo not given) [FENOPROFEN] , thanks.
Data returned: 0.0146

Data request: Let me know recorded fraction unbound at 5 h for NC(=O)N1c2ccccc2C=Cc2ccccc21 [CARBAMAZEPINE] , thanks.
Data returned: 0.266

Data request: Let me know recorded fraction unbound at 5 h for Cc1ccc(N2CC(COc3ccc(-c4noc(C)n4)cc3)C2)nn1 , thanks.
Data returned: 0.0488

Data request: Let me know recorded fraction unbound at 5 h for COc1ccc(Cl)cc1C(=O)NCCc1ccc(S(=O)(=O)NC(=O)NC2CCCCC2)cc1 [GLYBURIDE] , thanks.
Data returned: 0.0012

Data request: Let me know recorded fraction unbound at 5 h for Cc1nn(-c2ccccc2)c(N)c1-c1ccccc1 , thanks.
Data returned: 0.0457

Data request: Let me know recorded fraction unbound at 5 h for CCCN(c1cccc(S(C)(=O)=O)c1)P(=O)(c1ccccc1)c1ccccc1 , thanks.
Data returned: 0.186
